Biological target: chymotrypsin
Experiment: enzyme inhibition assay (panel of proteases); cyc-LHSPW tested against a panel of cancer-associated proteases (Fig. 5A); conditions not given
pKi: −log10 of the molar value. Positions of bridges follow the written chain, without caps; N, C: chain ends. No end group written: not given here.

# Binder, pKi
records = [
    ("CLHSPWC (disulfide 1-7) [cyc-LHSPW]", "< 4.00"),
]
